Listed here are molecules together with their documented Inhibition (%).
system: Cryptosporidium parvum; assay: qRT-PCR assay of the growth of C. parvum in vitro in HCT-8 host cells (primary and secondary screening, EC50); type: cell-based; details: primary screening at 10 uM
Could you give me the number in %? Just the number is fine.

{"molecule": "COc1cc2c3cc1Oc1cc(ccc1O)C[C@@H]1c4c(cc(OC)c(O)c4Oc4ccc(cc4)C[C@@H]3N(C)CC2)CC[N+]1(C)C.Cl.O.O.O.O.O.[Cl-] [TUBOCURARINE CHLORIDE]", "observed.value": 37.53}
{"molecule": "CS(C)(=O)=O [DIMETHYLSULFONE]", "observed.value": 65.78}
{"molecule": "COc1ccc(-c2oc3cc(OC)c(OC)c(OC)c3c(=O)c2OC)cc1 [3,4',5,6,7-PENTAMETHOXYFLAVONE]", "observed.value": -9.57}
{"molecule": "COc1ccc(-c2coc3cc(OC)ccc3c2=O)cc1 [7,4'-DIMETHOXYISOFLAVONE]", "observed.value": 1.31}
{"molecule": "COc1ccc(-c2oc3cc(OC)c(OC)c(OC)c3c(=O)c2OC)cc1OC [HEXAMETHYLQUERCETAGETIN]", "observed.value": 95.76}
{"molecule": "COc1ccc(-c2oc3ccccc3c(=O)c2OC)cc1 [3,4'-DIMETHOXYFLAVONE]", "observed.value": -22.87}
{"molecule": "Cl.NCCc1ccccc1 [PHENETHYLAMINE HYDROCHLORIDE]", "observed.value": 39.04}
{"molecule": "CC(C)CCC[C@@H](C)[C@H]1CC[C@H]2[C@@H]3CC=C4C[C@@H](OC(=O)c5ccccc5)CC[C@]4(C)[C@H]3CC[C@]12C [CHOLESTERYL BENZOATE]", "observed.value": -14.05}
{"molecule": "C[C@@H]1[C@H](O)[C@@H](C)/C=C/C=C/CC/C=C/C=C/C=C/C=C/C(O[C@H]2O[C@H](C)[C@@H](O)[C@H](N)[C@@H]2O)CC2O[C@](O)(CC(O)C(O)CCC(O)CC(O)CC(O)CC(=O)O[C@H]1C)CC(O)C2C(=O)O (some centres unmarked) [NYSTATIN]", "observed.value": 34.97}
{"molecule": "C[C@@H]1CC[C@@]2(OC1)O[C@H]1C[C@H]3[C@@H]4CC[C@@H]5C[C@@H](O)CC[C@]5(C)[C@H]4CC[C@]3(C)[C@H]1[C@@H]2C [SMILAGENIN]", "observed.value": 13.52}

Return Inhibition (%) (reported value) for this molecule: C[C@@H](O)[C@H](N)C(=O)O [THREONINE (L)]
-20.50

Respond only with Inhibition (%) recorded for CCC(C)C(NC)C(=O)O (centres unmarked) [N-METHYLISOLEUCINE]
-3.51

Output Inhibition (%) of CC1(C)C2CC(=O)[C@]3(C)C(CC[C@@]4(C)[C@H](c5ccoc5)OC(=O)[C@H]5O[C@]543)[C@@]2(C)C(=O)C[C@H]1O (some centres unmarked)
26.84

Determine from records and report Inhibition (%) for CC(=O)O[C@H]1C[C@@H](OC(C)=O)C(C)(C)C2CC(=O)[C@]3(C)C(CC[C@@]4(C)[C@H](c5ccoc5)OC(=O)[C@H]5O[C@]543)[C@]21C (some centres unmarked) [7-DEACETOXY-7-OXOKHIVORIN]
40.16
